# target_or_test_system: hEP3A/Gqi5 (Homo sapiens, UniProt P43115)
# Construct: expressed in transfected cells; host or cells: HEK-293(EBNA)
# measurement_description: FLIPR calcium signal, hEP3A
# Type: cell-based
# experimental_conditions: Table 3, third part; read-out: Ca2+ Signal-EC50 (nM) EP3
metric_name: EC50 (nM)
Give the value, in units of nM, as a plain number.

Query: Record CCCCCC(C)c1ccc([C@@H]2[C@@H](C/C=C\CCCC(=O)O)[C@H](C#N)C[C@H]2C)cc1 (stereo partly shown) : what is its EC50 with hEP3A/Gqi5 (Homo sapiens, UniProt P43115)?
Response: 10000

---

# target_or_test_system: human EP2 receptors (Homo sapiens)
# Construct: expressed in transfected cells; host or cells: HEK 293
# measurement_description: Competition radioligand binding ([3H]PGE2), EP2
# experimental_conditions: unit inferred; read-out: EP2 data Ki
metric_name: Ki (nM)
Numeric only. Scale: nM

Query: Bench note: what Ki did CCC(O)c1ccc(N2C(=O)CC[C@@H]2COCc2ccc(C(=O)O)s2)cc1 (stereo partly shown) show?
Response: 5730

Query: Subsequent entry: O=C(O)c1ccc(COC[C@H]2CCC(=O)N2c2ccc(C(O)Cc3ccccc3)cc2)o1 (stereo partly shown)
Response: 2290

Query: Similarly, CCCCCC(O)c1ccc(N2C(=O)CC[C@@H]2CCCc2ccc(C(=O)O)s2)cc1 (stereo partly shown) [drawing 145] ?
Response: 23

Query: And for CCCCCCC(O)c1ccc(N2C(=O)CC[C@@H]2COCc2ccc(C(=O)O)s2)cc1 (single isomer, unassigned) [drawing 181] ?
Response: 201

---

# target_or_test_system: hEP2/Gqs5 (Homo sapiens, UniProt P43116)
# Construct: expressed in transfected cells; host or cells: HEK-293(EBNA)
# Sequence (P43116 whole entry): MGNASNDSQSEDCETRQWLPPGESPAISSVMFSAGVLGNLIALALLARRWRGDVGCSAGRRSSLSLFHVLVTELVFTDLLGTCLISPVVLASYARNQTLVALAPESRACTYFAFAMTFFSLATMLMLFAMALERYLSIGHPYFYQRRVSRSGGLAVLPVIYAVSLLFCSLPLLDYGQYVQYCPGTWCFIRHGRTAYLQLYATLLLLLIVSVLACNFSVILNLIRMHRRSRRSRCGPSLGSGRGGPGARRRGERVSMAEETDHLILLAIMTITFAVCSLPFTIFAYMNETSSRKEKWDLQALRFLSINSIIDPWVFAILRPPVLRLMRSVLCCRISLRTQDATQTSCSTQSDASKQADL
# measurement_description: FLIPR calcium signal, hEP2
# Type: cell-based
# experimental_conditions: unit inferred; other columns of the table in nM; read-out: EP2 data flipr EC50
# YES = EC50 below 100 nM (exclusive); NO = EC50 at/above 100 nM

Query: Given CCCCCC(O)c1ccc(N2C(=O)CC[C@@H]2COCc2ccc(C(=O)O)s2)cc1 (single isomer, unassigned) [drawing 177] , is recorded EC50 strictly lower than 100 nM?
Response: YES

Query: Then what about the molecule CC(C)(C)c1ccc(N2C(=O)CC[C@@H]2COCc2ccc(C(=O)O)s2)cc1 ?
Response: NO

Query: Now consider CCCCCC(=O)c1ccc(N2C(=O)CC[C@@H]2CCCc2ccc(C(=O)O)s2)cc1 .
Response: YES

Query: Further, for CC(C)(C)c1ccc(N2C(=O)CC[C@@H]2CCCCCCC(=O)O)cc1 ?
Response: NO

Query: Param item: CC(C)(C)c1ccc(N2C(=O)CC[C@@H]2COCCCCC(=O)O)cc1
Response: NO

Query: Would you kindly repeat that for CCCCCCC(O)c1ccc(N2C(=O)CC[C@@H]2COCc2ccc(C(=O)O)s2)cc1 (single isomer, unassigned) [drawing 152] ?
Response: NO

Query: Also check CCCCCC(O)c1ccc(N2C(=O)CC[C@@H]2COCc2ccc(C(=O)O)s2)cc1 (stereo partly shown)
Response: YES

Query: Ok, now CCCCCC(O)c1ccc(N2C(=O)CC[C@@H]2/C=C/Cc2ccc(C(=O)O)s2)cc1 (stereo partly shown) [drawing 144]
Response: NO

Query: Then what about the molecule CCCCCC(O)c1ccc(N2C(=O)CC[C@@H]2CCCc2ccc(C(=O)O)s2)cc1 (single isomer, unassigned) [drawing 180] ?
Response: NO

Query: Now the molecule O=C(O)c1ccc(COC[C@H]2CCC(=O)N2c2ccc(C(O)Cc3ccccc3)cc2)o1 (stereo partly shown)
Response: NO

Query: Consider next the molecule CCCCCCC(O)c1ccc(N2C(=O)CC[C@@H]2CCCc2ccc(C(=O)O)s2)cc1 (stereo partly shown) [drawing 154] in the same way.
Response: YES

Query: Now the same for CCCCCCC(O)c1ccc(N2C(=O)CC[C@@H]2COCc2ccc(C(=O)O)s2)cc1 (single isomer, unassigned) [drawing 181]
Response: YES

Query: Same read-out for CCCCCCC(O)c1ccc(N2C(=O)CC[C@@H]2COCc2ccc(C(=O)O)s2)cc1 (stereo partly shown) [drawing 141] ?
Response: YES

Query: Would you kindly repeat that for CCCCCC(O)c1ccc(N2C(=O)CC[C@@H]2CCCc2ccc(C(=O)O)s2)cc1 (single isomer, unassigned) [drawing 179] ?
Response: YES

Query: Now consider CC(C)(C)c1ccc(N2C(=O)CC[C@@H]2COCc2cccc(C(=O)O)c2)cc1 .
Response: NO

Query: Now this one: CCCCCC(O)c1ccc(N2C(=O)CC[C@@H]2COCc2ccc(C(=O)O)s2)cc1 (single isomer, unassigned) [drawing 148]
Response: YES

---

Kindly state EC50 for each of the entries shown.
# target_or_test_system: hEP2/Gqs5 (Homo sapiens)
# Construct: expressed in transfected cells; host or cells: HEK-293(EBNA)
# measurement_description: FLIPR calcium signal, hEP2
# Format: cell-based
# experimental_conditions: unit inferred; other columns of the table in nM; read-out: EP2 data flipr EC50
Entry rule: numbers only, all in nM.

Query: Consider the compound shown here: CCCCCCC(O)c1ccc(N2C(=O)CC[C@@H]2CCCc2ccc(C(=O)O)s2)cc1 (single isomer, unassigned) [drawing 184] What is its recorded EC50?
Response: 5

Query: Now consider CCCCCC(O)c1ccc(N2C(=O)CC[C@@H]2COCc2ccc(C(=O)O)o2)cc1 (stereo partly shown) .
Response: 388

Query: Same thing, different compound: CCCCCCC(O)c1ccc(N2C(=O)CC[C@@H]2CCCc2ccc(C(=O)O)s2)cc1 (stereo partly shown) [drawing 182]
Response: 30

Query: Ok, now CC(C)(C)c1ccc(N2C(=O)CC[C@@H]2COCc2ccc(C(=O)O)o2)cc1
Response: 442

---

# target_or_test_system: hEP3A/Gqi5 (Homo sapiens, UniProt P43115)
# Construct: expressed in transfected cells; host or cells: HEK-293(EBNA)
# Sequence (P43115 1-390): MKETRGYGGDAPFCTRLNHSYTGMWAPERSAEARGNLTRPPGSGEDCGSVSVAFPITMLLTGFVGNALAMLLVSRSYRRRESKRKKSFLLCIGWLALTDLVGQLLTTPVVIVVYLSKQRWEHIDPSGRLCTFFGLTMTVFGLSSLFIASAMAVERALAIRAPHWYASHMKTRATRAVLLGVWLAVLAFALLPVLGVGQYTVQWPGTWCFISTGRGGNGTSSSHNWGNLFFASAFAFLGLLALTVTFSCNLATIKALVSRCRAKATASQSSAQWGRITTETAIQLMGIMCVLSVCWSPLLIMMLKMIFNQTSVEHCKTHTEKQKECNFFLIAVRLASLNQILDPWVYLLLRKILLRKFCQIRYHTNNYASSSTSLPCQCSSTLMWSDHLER
# measurement_description: FLIPR calcium signal, hEP3A
# Assay type: cell-based
# experimental_conditions: read-out: Other Receptors EC50 hEP3A
metric_name: log10 of EC50 (log10 of the value in nM)
Remember, log10 of EC50, in nM.

Query: Can you look up the measured log10 of EC50 of CCCCCC(O)c1ccc(N2C(=O)CC[C@@H]2/C=C/Cc2ccc(C(=O)O)s2)cc1 (some centres unmarked) [drawing 172] for me?
Response: 3.15

Query: What do you have for CCCCCCC(O)c1ccc(N2C(=O)CC[C@@H]2CCCc2ccc(C(=O)O)s2)cc1 (single isomer, unassigned) [drawing 156] ?
Response: 1.52

Query: Also, CCCCCC(O)c1ccc(N2C(=O)CC[C@@H]2COCc2ccc(C(=O)O)s2)cc1 (single isomer, unassigned) [drawing 177] please.
Response: 3.08

Query: Repeat with CCCCCCC(O)c1ccc(N2C(=O)CC[C@@H]2COCc2ccc(C(=O)O)s2)cc1 (single isomer, unassigned) [drawing 152]
Response: 1.85

Query: Do the same for CCCCCC(O)c1ccc(N2C(=O)CC[C@@H]2CCCc2ccc(C(=O)O)s2)cc1 (some centres unmarked) [drawing 145] please
Response: 2.19

Query: And for CC(C)(C)c1ccc(N2C(=O)CC[C@@H]2CCCCCCC(=O)O)cc1 ?
Response: 4.29

Query: Same thing, different compound: CC(C)(C)c1ccc(N2C(=O)CC[C@@H]2COCc2ccc(C(=O)O)s2)cc1
Response: 4.28

Query: What would you report for CCCCCC(O)c1ccc(N2C(=O)CC[C@@H]2COCc2ccc(C(=O)O)s2)cc1 (single isomer, unassigned) [drawing 148] ?
Response: 2.18

---

# target_or_test_system: hEP3A/Gqi5 (Homo sapiens)
# Construct: expressed in transfected cells; host or cells: HEK-293(EBNA)
# measurement_description: FLIPR calcium signal, hEP3A
# Type: cell-based
# experimental_conditions: read-out: Other Receptors EC50 hEP3A
# Method: […] Cells were excited with an Argon laser at 488 nm, and emission was measured through a 510-570 nm bandwidth emission filter (FLIPR™, Molecular Devices, Sunnyvale, Calif.). […] The peak increase in fluorescence intensity was recorded for each well. […] The peak fluorescence change in each drug-containing well was then expressed relative to the controls. […]
metric_name: EC50 (nM)
Express the result in nM but write the number alone.

Query: Quick one: EC50 of CCCCCCC(O)c1ccc(N2C(=O)CC[C@@H]2CCCc2ccc(C(=O)O)s2)cc1 (stereo partly shown) [drawing 182] ?
Response: 47

Query: Would you kindly repeat that for CCCCCCC(O)c1ccc(N2C(=O)CC[C@@H]2CCCc2ccc(C(=O)O)s2)cc1 (single isomer, unassigned) [drawing 155] ?
Response: 7

Query: Input CCCCCC(O)c1ccc(N2C(=O)CC[C@@H]2COCc2ccc(C(=O)O)o2)cc1 (stereo partly shown)
Response: 1930

Query: Then CCCCCCC(O)c1ccc(N2C(=O)CC[C@@H]2COCc2ccc(C(=O)O)s2)cc1 (single isomer, unassigned) [drawing 181] ?
Response: 621
